Attribution: a melting point compilation (Tetko et al.; mined from patent text by program, amines drawn as free bases though some values may be those of a salt)

Residues, ends and D or L forms follow the SMILES beside them. *: point of attachment. Cbz = O=C(OCc1ccccc1)*
readout-name: melting point

compound: NCCc1ccc(C=Cc2ccccc2)cc1
readout-name: melting point
reported-value: 141 to 156 °C
//
compound: COCc1ccc(Cl)c(C2(C)C(=O)N(Cc3ccc(OC)cc3OC)c3ccc(Cl)cc32)c1 (stereo not given)
readout-name: melting point
reported-value: 122 °C
//
compound: CCOC(=O)Cc1ccc2c(c1)NC(NC(C)C)=NS2(=O)=O
readout-name: melting point
reported-value: 182 to 184 °C
//
compound: COC(=O)c1cccc2nc(N3CCOCC3)n(Cc3ccc(-c4ccccc4)c(-c4nnn[nH]4)c3)c12
readout-name: melting point
reported-value: 163 to 167 °C
//
compound: COC(=O)[C@H](Cc1c[nH]cn1)NC(=O)[C@H](Cc1ccccc1)NC(=O)[C@H](Cc1ccccc1)NC(=O)OCc1ccccc1 (Cbz-Phe-Phe-His-OMe)
readout-name: melting point
reported-value: 204 to 206 °C

Continue with the next compound.
Task item: Dear colleague, I am looking for the recorded melting point of the following compound: Cc1c(NC(=O)CC(C)(C)C)cc2c(c1C)OC(C)(C)C2(O)CCc1ccccc1 (stereo not given)
Reply: 99 to 100 °C

====

readout-name: melting point

smiles-input: Cn1cc(C(=O)NCc2ccc(Cl)cc2)c(=O)c2cc(CN3CCCOCC3)ccc21
melting point: 178 to 179 °C

Task item: Dear colleague, I am looking for the recorded melting point of the following compound: Clc1ccc(-n2cc(Br)cn2)cc1
Reply: 75 to 76 °C

Task item: Dear colleague, I am looking for the recorded melting point of the following compound: CCNC(=NC#N)NCCSCc1csc(NC(=N)N)n1
Reply: 181 to 182 °C

Task item: Dear colleague, I am looking for the recorded melting point of the following compound: CCC(C)(C)c1cc(-c2cccc(C=C3SC(N4CCOCC4)=NC3=O)c2)ccc1O
Reply: 174 to 176 °C

Task item: Dear colleague, I am looking for the recorded melting point of the following compound: COc1ccc(C(=O)Nc2ccc3ccc(Oc4ccccc4F)nc3n2)cc1
Reply: 208 °C

Task item: Dear colleague, I am looking for the recorded melting point of the following compound: O=C(CO)NCc1ccc2ccn(C3CCN(CCc4ccc(F)cc4)CC3)c2c1
Reply: 76 to 78 °C

Task item: Dear colleague, I am looking for the recorded melting point of the following compound: CN(C)c1ccc(C(=O)CCCC2CCN(Cc3ccccc3)CC2)cc1
Reply: 83 to 85 °C

Task item: Dear colleague, I am looking for the recorded melting point of the following compound: CC(N)=CC(=O)c1cccs1
Reply: 170 to 172 °C

Task item: Dear colleague, I am looking for the recorded melting point of the following compound: O=C(O)COc1nn(-c2ccccc2)cc1-c1ccccc1
Reply: 172 °C

Task item: Dear colleague, I am looking for the recorded melting point of the following compound: CCSCCCN(C)c1c(S(=O)(=O)C(F)(F)F)c(C#N)nn1-c1c(Cl)cc(C(F)(F)F)cc1Cl
Reply: 89 °C

Task item: Dear colleague, I am looking for the recorded melting point of the following compound: COP(=O)(CNC(=O)[C@H](C)NC(=O)[C@H](C)NC(=O)OCc1ccccc1)OC
Reply: 106 to 108 °C

Task item: Dear colleague, I am looking for the recorded melting point of the following compound: Cn1ncnc1COc1nn2c(-c3ccccc3F)nncc2c1-c1ccccc1F
Reply: 169 °C

Task item: Dear colleague, I am looking for the recorded melting point of the following compound: CC(C)=CCOc1c(-c2ccc(S(C)(=O)=O)cc2)cnn(-c2ccc(F)cc2)c1=O
Reply: 128 to 132 °C

====

readout-name: melting point

Task item: Dear colleague, I am looking for the recorded melting point of the following compound: N#CSCC(Cl)=C(Cl)CBr
Reply: 64.5 to 66.5 °C

Task item: Dear colleague, I am looking for the recorded melting point of the following compound: COc1ccc(S(=O)(=O)N(Cc2nnnn2C)c2ccc(Cl)cc2Cc2c(F)cccc2F)cc1OC
Reply: 136 °C

Task item: Dear colleague, I am looking for the recorded melting point of the following compound: CCCc1c(OCC(C)CC(=O)NCCCCc2cccnc2)ccc(C(C)=O)c1O (stereo not given)
Reply: 58 to 60 °C

Task item: Dear colleague, I am looking for the recorded melting point of the following compound: ClC(Cl)(Cl)C1NCC(c2ccccc2)O1 (stereo not given)
Reply: 58 to 64 °C

Task item: Dear colleague, I am looking for the recorded melting point of the following compound: CNC(=O)c1c(I)c(C(=O)O)c(I)c(C(=O)NC)c1I
Reply: > 300 °C

====

Some compounds, each annotated with its measured melting point.

compound: CC#CC(O)(C#CC)C1(Cl)CC(c2ccccc2)=CC=C1N (centres undefined)
reported-value: 112 to 114 °C
//
compound: Cc1cc(N)n(-c2ccc(Cl)c(Cl)c2)n1
reported-value: 110 to 112 °C
//
compound: CCOc1cc2c(cc1OC)C(c1ccc(C(=O)N(C(C)C)C(C)C)cc1)=N[C@@H]1CCOC[C@H]21
reported-value: 116 to 120 °C
//
compound: NC(=O)NN=Cc1ccc(Oc2ccc3c(c2)CCC3)cc1
reported-value: 218 to 220 °C
//
compound: CC(=O)N1CCC(C(O)(c2ccccc2)c2ccc(F)cc2)CC1 (centres undefined)
reported-value: 173 to 175 °C
//
compound: CC(C)CCCC(C)C1CCC2C3CC=C4CC(OC(=O)C(C)O)CCC4(C)C3CCC12C (centres undefined)
reported-value: 120 to 122 °C
//
compound: COc1cc2c(c3c1OC(C)(C)C3)C(c1cccc(-c3ccc(NC(=O)CNC(C)=O)cc3)c1)=NC(C)(C)C2
reported-value: 218 to 221 °C
//
compound: COc1cc(Cl)ccc1-c1ccc(C(C)=O)cc1[N+](=O)[O-]
reported-value: 104 to 106 °C

Continue with the next compound.
Task item: Dear colleague, I am looking for the recorded melting point of the following compound: Cc1nc2c(c3c1[nH]c1cccc(F)c13)C(=O)CC(C(C)C)C2 (centres undefined)
Reply: 213 to 215 °C

====

Some compounds, each annotated with its measured melting point.

Field: example entries. Status: answers known.
compound: O=C(O)c1cc2ccccc2c(=O)o1
melting point: 241 to 242 °C

compound: NC(=O)N(O)Cc1ccc(C(O)C#Cc2ccsc2)cc1 (configuration not stated)
melting point: 117 to 119 °C

compound: Cc1ccccc1NC(=O)Nc1ccc(CN)cc1
melting point: 142 to 143 °C

compound: CCOc1ncnc(OCC)c1NC(=S)NC(=O)c1ccccc1
melting point: 162 °C

compound: CC(=O)NCc1ncc(-n2nc(C)cc2C)nc1Nc1ccc(Cl)cc1
melting point: 228 to 230 °C

Task item: Dear colleague, I am looking for the recorded melting point of the following compound: CN1CCN(c2cc(Cl)cc3c2c(=O)n(Cc2ccccc2Cl)c(=O)n3Cc2ccccc2)CC1
Reply: 87 to 92 °C

Task item: Dear colleague, I am looking for the recorded melting point of the following compound: Cc1ccc(C2(O)c3c(C)c(NC(=O)CC(C)(C)C)c(C)c(C)c3OC2(C)C)cc1 (configuration not stated)
Reply: 146 to 148 °C

====

Some compounds, each annotated with its measured melting point.

Field: example entries. Status: answers known.
compound: Clc1ccc(CCC(Cn2ccnc2)OCC=Cc2ccccc2)cc1 (centres undefined)
readout-name: melting point
reported-value: 115 to 116 °C
//
compound: Cc1nc2c(N)nc3ccccc3c2n1CCC1(O)CCOCC1
readout-name: melting point
reported-value: > 253 °C

Task item: Dear colleague, I am looking for the recorded melting point of the following compound: CC(C)CCSc1cc(C(=O)O)cc(N=Nc2cc(C(=O)O)cc(SCCC(C)C)c2C(=O)c2ccccc2)c1C(=O)c1ccccc1
Reply: 143 to 144 °C

Task item: Dear colleague, I am looking for the recorded melting point of the following compound: CCOc1ccccc1N1CCN(CCCC2CN(C)C(=O)O2)CC1 (centres undefined)
Reply: 79 to 81 °C

Task item: Dear colleague, I am looking for the recorded melting point of the following compound: COn1c(C)nc2c(NCc3c(C)cccc3C)cc(C(=O)O)cc21
Reply: 248 to 249 °C

Task item: Dear colleague, I am looking for the recorded melting point of the following compound: CC(C)c1cccc(C(C)C)c1NC(=O)CN1CN(c2ccccc2)C2(CCCCC2)C1=O
Reply: 251 to 253 °C

Task item: Dear colleague, I am looking for the recorded melting point of the following compound: Cc1oc(-c2ccccc2)nc1Cc1cc2cc(CC3OC(=O)NC3=O)ccc2o1 (centres undefined)
Reply: 190 to 191 °C

Task item: Dear colleague, I am looking for the recorded melting point of the following compound: CP(=O)(O)C[C@@H](O)CN
Reply: 221 to 222 °C

Task item: Dear colleague, I am looking for the recorded melting point of the following compound: CO[C@H](C)C(=O)N[C@H]1CC[C@H](CCN2CCN(c3nccc4c3OCC4)CC2)CC1
Reply: 170 °C
